# KD values compiled below
Target: T1, Sortilin-6His (Homo sapiens (Human), UniProt Q99523 78-755)
T1 construct: In MST it was labelled non-covalently with RED-tris-NTA; also called soluble ectodomain of sortilin-6his; fluorescent sortilin-6his
T1 sequence (Q99523 78-755 V650M limits assumed): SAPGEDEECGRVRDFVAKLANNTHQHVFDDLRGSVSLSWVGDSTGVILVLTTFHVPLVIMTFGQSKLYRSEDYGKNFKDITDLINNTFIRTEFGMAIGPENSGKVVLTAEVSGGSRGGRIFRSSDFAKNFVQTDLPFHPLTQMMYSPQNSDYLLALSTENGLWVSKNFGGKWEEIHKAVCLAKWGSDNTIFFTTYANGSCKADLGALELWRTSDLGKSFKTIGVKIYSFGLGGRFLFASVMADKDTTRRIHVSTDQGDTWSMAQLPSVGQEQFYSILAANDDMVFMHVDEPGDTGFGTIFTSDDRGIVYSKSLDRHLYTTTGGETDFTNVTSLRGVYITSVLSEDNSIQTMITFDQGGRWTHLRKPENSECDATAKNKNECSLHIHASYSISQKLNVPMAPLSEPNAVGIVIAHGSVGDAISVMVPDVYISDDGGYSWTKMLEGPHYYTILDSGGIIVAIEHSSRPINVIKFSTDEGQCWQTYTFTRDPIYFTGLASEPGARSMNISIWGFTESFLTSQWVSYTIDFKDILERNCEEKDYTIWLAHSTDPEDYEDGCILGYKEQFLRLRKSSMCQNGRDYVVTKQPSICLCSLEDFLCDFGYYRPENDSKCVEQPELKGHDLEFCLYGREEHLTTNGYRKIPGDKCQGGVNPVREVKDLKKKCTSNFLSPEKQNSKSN
Experiment: MST on labelled sortilin-6his ectodomain; KD score: +++ <25 nM, ++ 25-250 nM, + 250-2500 nM, 0 >2500 nM
No end group written: not given here.

Solved entries:
{"binder": "H-RYYL-OH [H-RYYL-OH]", "KD": "25 to 250 nM"}
{"binder": "H-PYLL-OH [H-PYLL-OH]", "KD": "250 to 2500 nM"}
{"binder": "WSGPIGVSWGLRAAAAGFQLL-OH [WSGPIGVSWGLRAAAAGFQLL-OH]", "KD": "< 25 nM"}

Let us examine a further case.
Reported KD, binder GGSGGGGSGGGGSGGRQLL-OH [GGSGGGGSGGGGSGGRQLL-OH] : ____ 25 to 250 nM
